Target: CDK9 CCNT1 (human) (UniProt P50750+O60563)
Sequence (O60563 whole entry, looked up): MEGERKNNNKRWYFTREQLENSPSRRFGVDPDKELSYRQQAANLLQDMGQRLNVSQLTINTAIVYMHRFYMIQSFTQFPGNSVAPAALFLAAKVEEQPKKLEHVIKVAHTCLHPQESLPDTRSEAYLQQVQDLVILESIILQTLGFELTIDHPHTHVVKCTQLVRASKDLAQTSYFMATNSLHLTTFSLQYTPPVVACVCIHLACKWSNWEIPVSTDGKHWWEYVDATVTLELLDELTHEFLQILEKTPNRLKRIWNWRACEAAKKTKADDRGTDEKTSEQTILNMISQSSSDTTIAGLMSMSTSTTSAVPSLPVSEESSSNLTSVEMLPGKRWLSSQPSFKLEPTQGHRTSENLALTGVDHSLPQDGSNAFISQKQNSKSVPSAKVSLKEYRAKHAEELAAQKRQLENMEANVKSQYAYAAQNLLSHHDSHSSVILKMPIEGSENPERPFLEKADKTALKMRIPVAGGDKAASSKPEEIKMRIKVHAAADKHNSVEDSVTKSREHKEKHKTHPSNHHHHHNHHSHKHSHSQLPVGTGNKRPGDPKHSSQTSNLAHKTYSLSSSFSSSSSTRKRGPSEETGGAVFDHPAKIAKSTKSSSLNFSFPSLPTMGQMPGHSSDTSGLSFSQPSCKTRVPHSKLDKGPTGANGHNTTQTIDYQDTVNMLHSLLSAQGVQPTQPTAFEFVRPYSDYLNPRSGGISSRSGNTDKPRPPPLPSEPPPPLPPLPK
Sequence (P50750 whole entry, looked up): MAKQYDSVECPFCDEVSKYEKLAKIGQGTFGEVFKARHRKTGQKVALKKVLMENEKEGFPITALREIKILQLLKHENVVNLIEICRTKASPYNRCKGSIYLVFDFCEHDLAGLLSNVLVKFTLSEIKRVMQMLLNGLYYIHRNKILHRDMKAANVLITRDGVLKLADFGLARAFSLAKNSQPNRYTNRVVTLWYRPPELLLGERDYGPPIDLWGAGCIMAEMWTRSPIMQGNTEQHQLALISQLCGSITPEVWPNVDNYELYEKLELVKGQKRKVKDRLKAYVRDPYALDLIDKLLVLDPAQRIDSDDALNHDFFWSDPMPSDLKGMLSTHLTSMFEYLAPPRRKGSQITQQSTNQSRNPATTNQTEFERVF
Test: radiometric filter-binding kinase assay, Kinase HotSpot
Conditions: compound 0.5 µM; ATP 10 µM
measurement-kind: residual activity (%)
Value expressed in %; do not type the unit.

These solved cases illustrate the format of a correct answer.
Briefly, residual activity measured for "C#Cc1cccc(Nc2ncnc3cc(OCCOC)c(OCCOC)cc23)c1" : 87.3

Briefly, residual activity measured for "CCN1/C(=C/C(C)=O)Sc2ccc(OC)cc21" : 101

Briefly, residual activity measured for "O=c1cc(N2CCNCC2)oc2c(-c3ccccc3)cccc12" : 98.8

Briefly, residual activity measured for "Cc1ccc(NC(=O)c2ccc(CN3CCN(C)CC3)cc2)cc1Nc1nc(-c2cccnc2)cs1" : 99.2

Briefly, residual activity measured for O=C(NC(NC(=S)Nc1ccc(F)c([N+](=O)[O-])c1)C(Cl)(Cl)Cl)C(c1ccccc1)c1ccccc1 (stereo unspecified) : 95

Could you now look at the following compound, please?
Briefly, residual activity measured for "Nc1n[nH]c2nnc(-c3c(-c4ccccc4)nn4ccccc34)cc12" : 97.3

----------
Target: UniProtKB Q04912
Sequence (Q04912 whole entry, looked up): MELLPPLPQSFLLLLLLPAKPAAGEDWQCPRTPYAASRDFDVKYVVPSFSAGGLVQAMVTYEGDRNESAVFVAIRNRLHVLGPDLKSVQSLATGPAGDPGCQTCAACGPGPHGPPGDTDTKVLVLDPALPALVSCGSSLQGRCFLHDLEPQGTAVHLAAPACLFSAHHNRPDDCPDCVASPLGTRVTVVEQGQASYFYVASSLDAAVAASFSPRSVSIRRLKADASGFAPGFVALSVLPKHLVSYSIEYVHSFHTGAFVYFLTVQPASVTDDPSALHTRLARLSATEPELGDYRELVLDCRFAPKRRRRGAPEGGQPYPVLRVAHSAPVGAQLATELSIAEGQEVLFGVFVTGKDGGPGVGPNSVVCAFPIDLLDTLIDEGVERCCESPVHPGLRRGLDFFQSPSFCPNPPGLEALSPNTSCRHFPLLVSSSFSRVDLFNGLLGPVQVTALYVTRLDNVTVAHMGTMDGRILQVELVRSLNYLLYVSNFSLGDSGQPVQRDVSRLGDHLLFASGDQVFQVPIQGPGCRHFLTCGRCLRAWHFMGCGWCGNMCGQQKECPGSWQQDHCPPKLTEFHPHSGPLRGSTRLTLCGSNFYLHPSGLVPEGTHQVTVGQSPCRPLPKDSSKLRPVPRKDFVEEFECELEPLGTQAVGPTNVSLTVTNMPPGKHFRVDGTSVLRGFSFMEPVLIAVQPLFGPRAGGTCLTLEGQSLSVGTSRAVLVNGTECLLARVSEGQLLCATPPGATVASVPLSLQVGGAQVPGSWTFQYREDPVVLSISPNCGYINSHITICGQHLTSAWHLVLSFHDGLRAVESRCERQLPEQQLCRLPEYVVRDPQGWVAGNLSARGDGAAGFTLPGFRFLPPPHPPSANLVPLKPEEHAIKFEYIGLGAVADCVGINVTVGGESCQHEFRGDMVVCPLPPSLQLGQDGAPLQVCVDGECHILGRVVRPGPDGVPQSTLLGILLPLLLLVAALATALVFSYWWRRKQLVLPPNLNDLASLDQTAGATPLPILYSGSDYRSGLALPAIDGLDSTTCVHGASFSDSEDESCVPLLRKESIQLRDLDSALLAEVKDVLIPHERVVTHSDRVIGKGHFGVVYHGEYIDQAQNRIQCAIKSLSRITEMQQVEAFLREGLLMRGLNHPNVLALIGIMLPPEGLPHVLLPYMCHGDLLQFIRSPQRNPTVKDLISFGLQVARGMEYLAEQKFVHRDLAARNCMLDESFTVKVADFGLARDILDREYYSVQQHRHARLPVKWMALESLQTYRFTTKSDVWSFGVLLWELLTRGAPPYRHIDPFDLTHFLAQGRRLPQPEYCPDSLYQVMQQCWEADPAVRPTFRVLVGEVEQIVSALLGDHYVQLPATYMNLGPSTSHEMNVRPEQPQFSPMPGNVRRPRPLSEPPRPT
Test: radiometric filter-binding kinase assay, Kinase HotSpot
Conditions: compound 0.5 µM; ATP 10 µM
Respond with YES for residual activity values of 90% and above, NO for values below.

Incoming: Form field: residual activity at least 90%? Entry: CS(=O)c1ccc(-c2nc(-c3ccc(F)cc3)c(-c3ccncc3)[nH]2)cc1 (centres undefined)
Outgoing: YES

Incoming: Form field: residual activity at least 90%? Entry: CSc1nc(-c2ccc(F)cc2)c(-c2ccnc(NC(C)c3ccccc3)c2)[nH]1 (centres undefined)
Outgoing: NO

Further cases:
Incoming: Form field: residual activity at least 90%? Entry: "CCN1/C(=C/C(C)=O)Sc2ccc(OC)cc21"
Outgoing: YES

Incoming: Form field: residual activity at least 90%? Entry: "O=C1Cc2c([nH]c3ccc([N+](=O)[O-])cc23)-c2ccccc2N1"
Outgoing: YES

Incoming: Form field: residual activity at least 90%? Entry: "O=C1Nc2cc(Br)ccc2/C1=C1/Nc2ccccc2/C1=N\O"
Outgoing: YES

Incoming: Form field: residual activity at least 90%? Entry: "Nc1nc(Nc2ccc(S(N)(=O)=O)cc2)nn1C(=S)Nc1c(F)cccc1F"
Outgoing: NO

Incoming: Form field: residual activity at least 90%? Entry: "Cc1cc2ncc(-c3ccccc3)nc2cc1C"
Outgoing: YES

Incoming: Form field: residual activity at least 90%? Entry: "O=c1cc(-c2cccc3c2Sc2ccccc2S3)oc(N2CCOCC2)c1"
Outgoing: YES

Incoming: Form field: residual activity at least 90%? Entry: "Oc1ccc(-c2nc(-c3ccc(F)cc3)c(-c3ccncc3)[nH]2)cc1"
Outgoing: YES

Incoming: Form field: residual activity at least 90%? Entry: "Cc1ccc(NC(=O)c2ccc(CN3CCN(C)CC3)cc2)cc1Nc1nc(-c2cccnc2)cs1"
Outgoing: YES

----------
Listing of entries alongside the reported residual activity.
Target: TGFBR2 (human) (UniProt P37173)
Sequence (P37173 whole entry, looked up): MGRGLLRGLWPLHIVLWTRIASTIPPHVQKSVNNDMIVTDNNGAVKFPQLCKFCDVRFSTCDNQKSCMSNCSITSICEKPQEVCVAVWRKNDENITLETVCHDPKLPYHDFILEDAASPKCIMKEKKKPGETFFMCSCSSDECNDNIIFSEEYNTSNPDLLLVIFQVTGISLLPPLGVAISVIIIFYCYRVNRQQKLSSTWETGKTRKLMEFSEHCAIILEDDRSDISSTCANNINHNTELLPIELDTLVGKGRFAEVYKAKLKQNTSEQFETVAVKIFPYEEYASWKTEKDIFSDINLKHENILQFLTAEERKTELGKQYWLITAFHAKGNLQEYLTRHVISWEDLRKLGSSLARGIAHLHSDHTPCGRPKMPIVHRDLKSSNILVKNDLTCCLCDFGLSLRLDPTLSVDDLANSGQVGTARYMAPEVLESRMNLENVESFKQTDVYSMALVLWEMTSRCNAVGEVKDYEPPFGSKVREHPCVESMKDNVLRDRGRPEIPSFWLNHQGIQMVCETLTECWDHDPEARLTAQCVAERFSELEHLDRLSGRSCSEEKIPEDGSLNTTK
Experiment: radiometric filter-binding kinase assay, Kinase HotSpot
Details: compound 0.5 µM; ATP 10 µM
Value expressed in %; do not type the unit.

Briefly, residual activity measured for "COc1ccc(-c2cnc3c(-c4ccsc4)cnn3c2)cc1" : 84.1

Briefly, residual activity measured for "COc1cc2ncnc(Nc3ccc(F)c(Cl)c3)c2cc1OCCCN1CCOCC1" : 93.8

Further cases:
Briefly, residual activity measured for "Nc1nc(Nc2ccc(S(N)(=O)=O)cc2)nn1C(=S)Nc1c(F)cccc1F" : 89.3

Briefly, residual activity measured for "Cc1cc2ncc(-c3ccccc3)nc2cc1C" : 130

Briefly, residual activity measured for "O=C1Nc2ccccc2/C1=C\c1c(Cl)[nH]c2ccccc12" : 95.6

Briefly, residual activity measured for "CCCNC(=O)Nc1ccc(Oc2ncnc3cc(OC)c(OC)cc23)cc1Cl" : 109

Briefly, residual activity measured for "O=c1cc(-c2cccc3c2Sc2ccccc2S3)oc(N2CCOCC2)c1" : 93.4

----------
Target: UniProt:Q96L34
Sequence (Q96L34 whole entry, looked up): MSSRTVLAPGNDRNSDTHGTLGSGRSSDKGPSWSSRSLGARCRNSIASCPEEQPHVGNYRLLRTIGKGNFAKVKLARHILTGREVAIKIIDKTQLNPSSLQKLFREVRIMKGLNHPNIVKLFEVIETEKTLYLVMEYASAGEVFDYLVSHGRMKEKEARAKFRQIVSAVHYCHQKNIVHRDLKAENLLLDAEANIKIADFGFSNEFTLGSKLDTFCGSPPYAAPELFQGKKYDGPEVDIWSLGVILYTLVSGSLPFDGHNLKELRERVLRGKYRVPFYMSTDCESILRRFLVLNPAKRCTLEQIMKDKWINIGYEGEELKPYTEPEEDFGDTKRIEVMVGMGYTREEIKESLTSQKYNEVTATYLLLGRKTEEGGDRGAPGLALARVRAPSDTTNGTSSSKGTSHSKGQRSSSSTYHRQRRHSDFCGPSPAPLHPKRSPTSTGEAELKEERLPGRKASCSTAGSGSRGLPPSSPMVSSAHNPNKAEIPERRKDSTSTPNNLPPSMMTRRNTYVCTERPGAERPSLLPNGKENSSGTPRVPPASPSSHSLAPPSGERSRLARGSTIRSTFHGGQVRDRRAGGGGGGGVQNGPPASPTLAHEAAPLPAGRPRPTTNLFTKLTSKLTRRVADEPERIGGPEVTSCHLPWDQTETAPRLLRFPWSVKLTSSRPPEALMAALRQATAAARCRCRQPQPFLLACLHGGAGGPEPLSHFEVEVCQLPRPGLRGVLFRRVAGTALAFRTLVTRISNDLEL
Experiment: radiometric filter-binding kinase assay, Kinase HotSpot
Settings: compound 0.5 µM; ATP 10 µM
Label key: rule met means residual activity under 90%; rule not met means residual activity of 90% or more.

Incoming: Consider "COc1ccc(-c2cnc3c(-c4ccsc4)cnn3c2)cc1" . Does its residual activity lie strictly below 90%?
Outgoing: rule not met

Incoming: Consider "O=C1Cc2c([nH]c3ccc([N+](=O)[O-])cc23)-c2ccccc2N1" . Does its residual activity lie strictly below 90%?
Outgoing: rule met

Incoming: Consider "O=c1cc(-c2cccc3c2Sc2ccccc2S3)oc(N2CCOCC2)c1" . Does its residual activity lie strictly below 90%?
Outgoing: rule not met

Incoming: Consider "C#Cc1cccc(Nc2ncnc3cc(OCCOC)c(OCCOC)cc23)c1" . Does its residual activity lie strictly below 90%?
Outgoing: rule not met

Incoming: Consider "CCCNC(=O)Nc1ccc(Oc2ncnc3cc(OC)c(OC)cc23)cc1Cl" . Does its residual activity lie strictly below 90%?
Outgoing: rule not met

Incoming: Consider "Cc1cc2ncc(-c3ccccc3)nc2cc1C" . Does its residual activity lie strictly below 90%?
Outgoing: rule not met

----------
Listing of entries alongside the reported residual activity.
Target: SRMS (human) (UniProt Q9H3Y6)
Sequence (Q9H3Y6 whole entry, looked up): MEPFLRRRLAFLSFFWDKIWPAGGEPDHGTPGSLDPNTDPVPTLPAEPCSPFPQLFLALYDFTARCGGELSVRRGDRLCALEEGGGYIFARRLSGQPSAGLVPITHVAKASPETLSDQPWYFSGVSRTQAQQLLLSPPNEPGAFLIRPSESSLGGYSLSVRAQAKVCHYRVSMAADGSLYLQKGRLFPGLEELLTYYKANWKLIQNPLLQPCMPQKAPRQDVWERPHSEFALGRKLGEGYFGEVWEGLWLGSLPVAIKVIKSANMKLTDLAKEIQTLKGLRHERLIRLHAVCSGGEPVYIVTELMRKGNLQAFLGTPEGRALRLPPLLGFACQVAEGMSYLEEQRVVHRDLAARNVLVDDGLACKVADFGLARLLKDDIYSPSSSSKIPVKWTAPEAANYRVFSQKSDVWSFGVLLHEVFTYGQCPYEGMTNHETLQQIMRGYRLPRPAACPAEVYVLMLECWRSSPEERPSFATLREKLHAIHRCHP
Experiment: radiometric filter-binding kinase assay, Kinase HotSpot
Settings: compound 0.5 µM; ATP 10 µM
Value expressed in %; do not type the unit.

These solved cases illustrate the format of a correct answer.
Briefly, residual activity measured for "O=c1cc(-c2cccc3c2Sc2ccccc2S3)oc(N2CCOCC2)c1" : 93.8

Briefly, residual activity measured for "C#Cc1cccc(Nc2ncnc3cc(OCCOC)c(OCCOC)cc23)c1" : 93.2

Briefly, residual activity measured for "O=C1Cc2c([nH]c3ccc([N+](=O)[O-])cc23)-c2ccccc2N1" : 92.9

Further cases:
Briefly, residual activity measured for "Clc1ccc(Nc2nnc(Cc3ccncc3)c3ccccc23)cc1" : 91.8

Briefly, residual activity measured for "O=C(Nc1ccc(Cl)cc1)c1ccccc1NCc1ccncc1" : 97.9

Briefly, residual activity measured for "CC(C)[C@H](CO)Nc1nc(Nc2cccc(Cl)c2)c2ncn(C(C)C)c2n1" : 104

Briefly, residual activity measured for "O=C1Nc2cc(Br)ccc2/C1=C1/Nc2ccccc2/C1=N\O" : 99.6

Briefly, residual activity measured for "COc1cc2nccc(Oc3ccc(NC(=S)NC(=O)c4ccccc4C)cc3)c2cc1OC" : 111

Briefly, residual activity measured for "CC(C)(C)c1nc2c3ccc(F)cc3c3c(=O)[nH]ccc3c2[nH]1" : 98.7

Briefly, residual activity measured for "O=C1Nc2ccccc2/C1=C\c1c(Cl)[nH]c2ccccc12" : 84.2

----------
Molecular target: WNK2 (human)
Test: radiometric filter-binding kinase assay, Kinase HotSpot
Conditions: compound 0.5 µM; ATP 10 µM
measurement-kind: residual activity (%)
Value expressed in %; do not type the unit.

These solved cases illustrate the format of a correct answer.
Briefly, residual activity measured for "CC(C)[C@H](CO)Nc1nc(Nc2cccc(Cl)c2)c2ncn(C(C)C)c2n1" : 92.4

Briefly, residual activity measured for "Nc1nc(Nc2ccc(S(N)(=O)=O)cc2)nn1C(=O)c1c(F)cccc1F" : 116

Briefly, residual activity measured for CSc1nc(-c2ccc(F)cc2)c(-c2ccnc(NC(C)c3ccccc3)c2)[nH]1 (stereo unspecified) : 118

Briefly, residual activity measured for "Cc1cc2ncc(-c3ccccc3)nc2cc1C" : 98.8

Could you now look at the following compound, please?
Briefly, residual activity measured for "CC(C)(C)c1nc2c3ccc(F)cc3c3c(=O)[nH]ccc3c2[nH]1" : 105

----------
Molecular target: UniProtKB Q15831
Sequence (Q15831 whole entry, looked up): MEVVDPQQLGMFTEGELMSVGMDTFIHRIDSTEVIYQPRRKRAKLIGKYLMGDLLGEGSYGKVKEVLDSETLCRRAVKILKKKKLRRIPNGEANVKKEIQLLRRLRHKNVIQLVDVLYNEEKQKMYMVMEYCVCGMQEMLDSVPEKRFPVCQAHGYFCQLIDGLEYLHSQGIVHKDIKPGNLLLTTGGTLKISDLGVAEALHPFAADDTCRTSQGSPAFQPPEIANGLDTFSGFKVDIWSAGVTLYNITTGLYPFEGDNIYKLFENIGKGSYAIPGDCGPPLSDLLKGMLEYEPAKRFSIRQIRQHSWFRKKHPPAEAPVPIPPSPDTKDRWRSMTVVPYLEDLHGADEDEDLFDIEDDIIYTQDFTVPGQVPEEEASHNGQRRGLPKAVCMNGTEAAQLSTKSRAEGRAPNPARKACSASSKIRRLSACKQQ
Experiment: radiometric filter-binding kinase assay, Kinase HotSpot
Details: compound 0.5 µM; ATP 10 µM
measurement-kind: residual activity (%)
Value expressed in %; do not type the unit.

Briefly, residual activity measured for "COc1cc2nccc(Oc3ccc(NC(=S)NC(=O)c4ccccc4C)cc3)c2cc1OC" : 106

Briefly, residual activity measured for "O=C1Cc2c([nH]c3ccc([N+](=O)[O-])cc23)-c2ccccc2N1" : 90.2

Briefly, residual activity measured for CSc1nc(-c2ccc(F)cc2)c(-c2ccnc(NC(C)c3ccccc3)c2)[nH]1 (centres undefined) : 95.4

Briefly, residual activity measured for "O=c1cc(N2CCNCC2)oc2c(-c3ccccc3)cccc12" : 101

Briefly, residual activity measured for "CC(C)[C@H](CO)Nc1nc(Nc2cccc(Cl)c2)c2ncn(C(C)C)c2n1" : 84.4

Briefly, residual activity measured for "CCCNC(=O)Nc1ccc(Oc2ncnc3cc(OC)c(OC)cc23)cc1Cl" : 87.3

Further cases:
Briefly, residual activity measured for "O=C1Nc2ccccc2/C1=C\c1c(Cl)[nH]c2ccccc12" : 83.4

----------
Target: MAPK9 (human)
Experiment: radiometric filter-binding kinase assay, Kinase HotSpot
Conditions: compound 0.5 µM; ATP 10 µM
measurement-kind: residual activity (%)
Value expressed in %; do not type the unit.

These solved cases illustrate the format of a correct answer.
Briefly, residual activity measured for CS(=O)c1ccc(-c2nc(-c3ccc(F)cc3)c(-c3ccncc3)[nH]2)cc1 (centres undefined) : 100

Briefly, residual activity measured for "Oc1ccc(-c2nc(-c3ccc(F)cc3)c(-c3ccncc3)[nH]2)cc1" : 93.4

Briefly, residual activity measured for CSc1nc(-c2ccc(F)cc2)c(-c2ccnc(NC(C)c3ccccc3)c2)[nH]1 (centres undefined) : 31.1

Briefly, residual activity measured for "CCN1/C(=C/C(C)=O)Sc2ccc(OC)cc21" : 101

Briefly, residual activity measured for "O=C(Nc1ccc(Cl)cc1)c1ccccc1NCc1ccncc1" : 102

Briefly, residual activity measured for "Nc1nc(Nc2ccc(S(N)(=O)=O)cc2)nn1C(=O)c1c(F)cccc1F" : 93.7

Briefly, residual activity measured for "COc1ccc(-c2cnc3c(-c4ccsc4)cnn3c2)cc1" : 104

Briefly, residual activity measured for "O=C1Nc2cc(Br)ccc2/C1=C1/Nc2ccccc2/C1=N\O" : 80.3

Further cases:
Briefly, residual activity measured for "Nc1nc(Nc2ccc(S(N)(=O)=O)cc2)nn1C(=S)Nc1c(F)cccc1F" : 80.9

Every entry's value here was drawn from the kinase profiling compilation of Christmann-Franck et al. (2016).
